assay: In vivo biodistribution and regional brain uptake in rats; details: male SD rats, i.v., 30 min p.i. (control)
Each record here notes measured Biodistribution, cerebellum.
Kindly provide the numeric value in %ID/gram only, without the unit symbol.

INSERT INTO measurements (compound, unit_abbreviation, numeric_value) VALUES
  ('Cn1ncc(-c2ccncc2)c1-c1ccc(OCc2cc(O[11CH3])c3ccccc3n2)cc1 [[^11C]4]', '%ID/gram', 0.024),
  ('Cn1cc(-c2ccncc2)c(-c2ccc(OCc3nc4ccccc4cc3O[11CH3])cc2)n1 [[^11C]1]', '%ID/gram', 0.097),
  ('Cn1cc(-c2ccncc2)c(-c2ccc(OCc3ccc4cc(O[11CH3])ccc4n3)cc2)n1 [[^11C]3]', '%ID/gram', 0.090);

# evaluate next
Requested read-out: Biodistribution, cerebellum. Entry: Cn1cc(-c2ccncc2)c(-c2ccc(OCc3cc(O[11CH3])c4ccccc4n3)cc2)n1 [[^11C]2]
0.066
